Target: ferroportin (Fpn) (Mus musculus, UniProt Q9JHI9)
Construct: endogenous in cells
Sequence (Q9JHI9 whole entry): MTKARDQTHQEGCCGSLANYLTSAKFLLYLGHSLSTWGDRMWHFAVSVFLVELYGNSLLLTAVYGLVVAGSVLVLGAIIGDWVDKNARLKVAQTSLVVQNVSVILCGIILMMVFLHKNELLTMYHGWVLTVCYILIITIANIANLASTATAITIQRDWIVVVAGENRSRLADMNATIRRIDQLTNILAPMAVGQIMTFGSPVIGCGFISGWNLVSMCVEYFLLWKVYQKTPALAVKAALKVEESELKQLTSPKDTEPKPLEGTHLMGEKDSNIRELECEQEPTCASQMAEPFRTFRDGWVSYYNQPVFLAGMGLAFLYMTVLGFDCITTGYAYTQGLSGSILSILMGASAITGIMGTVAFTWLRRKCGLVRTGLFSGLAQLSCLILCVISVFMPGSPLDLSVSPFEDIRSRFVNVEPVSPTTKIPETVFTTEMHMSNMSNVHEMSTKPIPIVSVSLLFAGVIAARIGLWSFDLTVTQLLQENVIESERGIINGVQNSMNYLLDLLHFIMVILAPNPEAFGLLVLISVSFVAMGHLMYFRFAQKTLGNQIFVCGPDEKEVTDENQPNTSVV
Experiment: Hepcidin Internalization Assay (J774)
Conditions: Average (AVE) IC50 of multiple measurements; inhibition of TMR-hepcidin (25 nM) internalization into J774 cells
endpoint-name: IC50 (nM)

Consider the worked cases shown below.
| item-smiles | IC50 [nM] |
| --- | --- |
| CNC(=O)CCn1c(CCNCCc2nc(C(=O)NCc3ncccc3F)co2)nc2ccccc21 | 7 |
| O=C(NCc1ncccc1F)c1coc(CCNCCc2nc3ccccc3n2CC(F)F)n1 | 5 |
| O=C(NCc1ncccc1F)c1coc(CCNCCc2nc3ccccc3n2Cc2ccccn2)n1 | 2 |
| COc1cccc(-n2c(CCNCCc3nc(C(=O)NCc4ncccc4F)co3)nc3cc4c(cc32)OCO4)c1 | 1.3 |
| COc1cccc(-n2c(CCNCCc3nc(C(=O)NCc4ncccc4F)co3)nc3cc(OC)c(OC)cc32)c1 | 35 |
| CN(C)CCn1c(C2CN(CCc3nc(C(=O)NCc4ncccc4F)co3)C2)nc2ccccc21 | 89 |
| O=C(NCc1ncccc1F)c1coc(CCNCCc2nc3ccccc3n2CC2CCCCC2)n1 | 0.8 |
| CCCCn1c(CCNCCc2nc(C(=O)NCc3ncccc3OC)co2)nc2ccccc21 | 1 |

(1) COCCOCCn1c(CCNCCc2nc(C(=O)NCc3ncccc3F)co2)nc2ccccc21
(2) O=C(NCc1ncccc1F)c1coc(CCNCCc2nc3ccccc3n2-c2ccccc2)n1
Lookup: Between 1 and 2 , which one shows the larger IC50 value? // respond with label for picked entry
Found: 1

###

Target: ferroportin (Fpn) (Mus musculus, UniProt Q9JHI9)
Construct: endogenous in cells
Experiment: Hepcidin Internalization Assay (J774)
Conditions: Average (AVE) IC50 of multiple measurements; inhibition of TMR-hepcidin (25 nM) internalization into J774 cells
From the text: This cellular assay allows quantification of the binding of hepcidin to ferroportin (Fpn) through microscopic detection of internalization of a fluorescently labeled hepcidin into J774 cells. […] Therefore, microscopic detection of cell-associated TMR fluorescence is a measure of hepcidin binding to Fpn and internalization of hepcidin and Fpn. If TMR-hepcidin is prevented from binding to Fpn, cellular TMR fluorescence remains low (Durrenberger et al, 2013). […]
pIC50: −log10 of the molar value.
endpoint-name: pIC50

Consider the worked cases shown below.
| item-smiles | pIC50 |
| --- | --- |
| O=C(O)Cn1c(CCNCCc2nc(C(=O)NCc3ncccc3F)co2)nc2ccccc21 | 6.90 |
| O=C(NCc1ncccc1F)c1coc(CCNCCc2nc3ccccc3n2Cc2ccc(Cl)cc2)n1 | 9.10 |

(A) COc1cccc(-n2c(CCNCCc3nc(C(=O)NCc4ncccc4OC)co3)nc3cc4c(cc32)OCCO4)c1
(B) O=C(NCc1ncccc1F)c1coc(CCNCCc2nc3cc4c(cc3n2-c2ccccc2)OCCO4)n1
Lookup: Between A and B , which one shows the larger pIC50 value? // respond with label for picked entry
Found: B

###

Molecular target: ferroportin (Fpn) (Mus musculus, UniProt Q9JHI9)
Construct: endogenous in cells
Test: Hepcidin Internalization Assay (J774)
Conditions: Average (AVE) IC50 of multiple measurements; inhibition of TMR-hepcidin (25 nM) internalization into J774 cells
endpoint-name: IC50 (nM)

Consider the worked cases shown below.
| item-smiles | endpoint-name | unit-label | observed-result |
| --- | --- | --- | --- |
| O=C(NCc1ncccc1F)c1coc(CCNCCc2nc3cc4c(cc3n2CC2CC2)OCCO4)n1 | IC50 | nM | 1.2 |
| CCCCn1c(CC(C)(C)NCCc2nc(C(=O)NCc3ncccc3F)co2)nc2ccccc21 | IC50 | nM | 625 |
| O=C(NCc1ncccc1F)c1coc(CCNCCc2nc3ccccc3n2CCc2ccccc2)n1 | IC50 | nM | 1.9 |

(A) CC(C)OCCn1c(CCNCCc2nc(C(=O)NCc3ncccc3F)co2)nc2ccccc21
(B) O=C(NCc1ncccc1F)c1coc(CCNCCc2nc3cc4c(cc3n2CC(F)F)OCCO4)n1
Lookup: Between the entries labeled A and B , whose measured IC50 is lower? // respond with label for picked entry
Found: A

(P) CCCCn1c(CCNCCc2nc(C(=O)NCc3ncccc3F)co2)nc2cc3c(cc21)OCCO3
(Q) COc1ccc(-n2c(CCNCCc3nc(C(=O)NCc4ncccc4F)co3)nc3cc(OC)c(OC)cc32)cc1OC
Lookup: Between P and Q , which one shows the larger IC50 value? // respond with label for picked entry
Found: Q
(Q: 39 nM, P: 0.9 nM)

(P) CCCCn1c(CCNCCc2nc(C(=O)NCc3ncccc3F)co2)nc2cc(-c3ccccc3OC)ccc21
(Q) CCCCn1c(C2CCN(CCc3nc(C(=O)NCc4ncccc4F)co3)CC2)nc2ccccc21
(R) O=C(NCc1ncccc1F)c1coc(CCNCCc2nc3cc4c(cc3n2CCc2ncco2)OCCO4)n1
(S) O=C(NCc1ncccc1F)c1coc(CCNCCc2nc3cc(C#Cc4ccccn4)ccc3n2CC2CC2)n1
Lookup: Hello, I need these entries ordered by IC50, highest reading first. Thanks! # format: label list in the order the request specifies
Found: Q, R, S, P

src = patent US20240343722A1
